Target or system IGF1-receptor (Homo sapiens, UniProt P08069): recorded IC50 listed per item.
PROPERTY MEASURED: IC50 (nM)

* Cc1ccnc(Nc2ncc(Sc3ccnc(C(=O)NCC4(c5ccccc5)CCNCC4)c3F)s2)c1 | 4
* Cc1ccnc(Nc2ncc(Sc3ccnc(C(=O)NCC4(c5ccccc5)CCN(C)CC4)c3F)s2)c1 | 9
* Cc1ccnc(Nc2ncc(Sc3ccnc(C(=O)NCC4(c5ccccn5)CCN(CCO)CC4)c3F)s2)c1 | 3
* Cc1ccnc(Nc2ncc(Sc3ccnc(C(=O)NCC4(c5ccccc5)CCN(C(=O)C(C)(C)N)CC4)c3F)s2)c1 | 4520

* * *

test system: IGF1R-Sal tumors; assay: IGF-1R Sal Tumor Model (tumor xenograft in nude mice); format: in vivo; settings: 12.5 mg/kg, qd, orally for 4 consecutive days; nude mice bearing IGF1R-Sal tumors
A collection of molecules and their measured % TGI
PROPERTY MEASURED: % TGI (%)

* Cc1ccnc(Nc2ncc(Sc3ccnc(C(=O)NCC4(c5ccccc5)CCNCC4)c3F)s2)c1 | 19
* Cc1ccnc(Nc2ncc(Sc3ccnc(C(=O)NCC4(c5ccccc5)CCN(C(=O)CN(C)C)CC4)c3F)s2)c1 | 92
* Cc1ccnc(Nc2ncc(Sc3ccnc(C(=O)NCC4(c5ccccc5)CCN(CCO)CC4)c3F)s2)c1 | 102
* Cc1ccnc(Nc2ncc(Sc3ccnc(C(=O)NCC4(c5ccccc5)CCN(C)CC4)c3F)s2)c1 | 107

* * *

pIC50: −log10 of the molar value.
Target or system IGF1-receptor (Homo sapiens): recorded pIC50 listed per item.
PROPERTY MEASURED: pIC50

• Cc1ccnc(Nc2ncc(Sc3ccnc(C(=O)NCC4(c5ccccc5)CCN(C(=O)N(C)C)CC4)c3F)s2)c1 = 6.45
• Cc1ccnc(Nc2ncc(Sc3ccnc(C(=O)NCC4(c5ccccc5)CCN(C(=O)N5CCOCC5)CC4)c3F)s2)c1 = 6.51
• COC(=O)N1CCC(CNC(=O)c2nccc(Sc3cnc(Nc4cc(C)ccn4)s3)c2F)(c2ccccn2)CC1 = 6.37
• Cc1ccnc(Nc2ncc(Sc3ccnc(C(=O)NCC4(c5ccccc5)CCN(CCC#N)CC4)c3F)s2)c1 = 6.49
• Cc1ccnc(Nc2ncc(Sc3ccnc(C(=O)NCC4(c5ccc(F)cc5F)CCN(C[C@H](O)CO)CC4)c3F)s2)c1 = 8.05
• Cc1ccnc(Nc2ncc(Sc3ccnc(C(=O)NCC4(c5ccccc5)CCN(CCO)CC4)c3F)s2)c1 = 8.52
• COCCOC(=O)N1CCC(CNC(=O)c2nccc(Sc3cnc(Nc4cc(C)ccn4)s3)c2F)(c2ccc(Cl)c(Cl)c2)CC1 = 5.24
